These entries and their values trace back to patent US20120101093A1.

Listed below: IC50 values for each entry.
- Target under test: BACE-1 enzyme (Homo sapiens)
- Construct: purchased R & D Systems 931AS
- Method summary: BACE Fluorescence Resonance Energy Transfer (FRET) Assay
- Assay type: biochemical
- Condition parameters: pH 4-4.5, 30 min pre-incubation, about 1.5 hours reaction
Numbers only here, please. The scale is µM.

Answered examples (8):
O=C(Nc1nc2cc(-c3cccc(C(F)(F)F)c3)ccc2[nH]1)c1cn2ccccc2n1	0.37
Cc1cccc2nc(C(=O)Nc3nc4cc(-c5cccc(C#N)c5)ccc4[nH]3)cn12	2.21
CCOc1cc(F)cn2cc(C(=O)Nc3nc4cc(-c5cc(F)cc(Cl)c5)ccc4[nH]3)nc12	0.43
CN(C)CCNCc1ccn2cc(C(=O)Nc3nc4cc(-c5cccc(C(F)(F)F)c5)ccc4[nH]3)nc2c1	0.26
CC(C)CN(C)Cc1ccc2nc(C(=O)Nc3nc4cc(-c5cccc(C(F)(F)F)c5)ccc4[nH]3)cn2c1	0.83
O=C(Nc1nc2cc(-c3cccc(OC(F)(F)F)c3)ccc2[nH]1)c1cn2ccccc2n1	0.54
Cc1c(N2CC[C@H](O)C2)ccc2nc(C(=O)Nc3nc4cc(-c5cc(F)cc(Cl)c5)ccc4[nH]3)cn12	0.69
O=C(Nc1nc2cc(-c3cccc(C(F)(F)F)c3)ccc2[nH]1)c1cn2cccc(CO)c2n1	0.4

// returns reported IC50 for input Cc1cccc2nc(C(=O)Nc3nc4cc(C5CCCCC5)ccc4[nH]3)cn12
1.93

Now try Cc1cccc2nc(C(=O)Nc3nc4cc(-c5cnc(N(C)C)nc5)ccc4[nH]3)cn12 .
1.17

Lookup O=C(Nc1nc2cc(-c3cc(F)cc(Cl)c3)ccc2[nH]1)c1cn2cc(F)ccc2n1
0.46

Then Cc1cccc2nc(C(=O)Nc3nc4cc(-c5ccc(O)c(C(F)(F)F)c5)ccc4[nH]3)cn12 ?
0.46

Repeat with CCc1cccc2nc(C(=O)Nc3nc4cc(-c5cccc(C(F)(F)F)c5)ccc4[nH]3)cn12
0.31

Query Cc1cccc2nc(C(=O)Nc3nc4cc(/C=C/c5ccc(C(F)(F)F)cc5)ccc4[nH]3)cn12 next
0.22

Check Cc1cccn2cc(C(=O)Nc3nc4cc(-c5cccc(OC(F)(F)F)c5)ccc4[nH]3)nc12 too.
0.32

Again, but for Cc1cccc2nc(C(=O)Nc3nc4cc(-c5cccc(C(F)(F)F)c5F)ccc4[nH]3)cn12
0.26

====

- Test system: Aβ1-40 secreted from HEK293 cells stably expressing wildtype human APP695 protein (HEK-APPwt cells)
- Method summary: Aβ Cell Based Assay (Aβ1-40 secretion, ELISA)
- Condition parameters: Homo sapiens, HEK293, 6 h, 6 hours incubation, reduction of Aβ1-40 secretion
Recorded metric: EC50 (µM)
Write it as a number; the unit µM goes unstated.

CN1CCN(Cc2cccn3cc(C(=O)Nc4nc5cc(-c6cccc(C(F)(F)F)c6)ccc5[nH]4)nc23)CC1	6.27
COCCNc1cccc2nc(C(=O)Nc3nc4cc(-c5cccc(C(F)(F)F)c5)ccc4[nH]3)cn12	1.5
O=C(Nc1nc2cc(-c3cccc(C(F)(F)F)c3)ccc2[nH]1)c1cn2c(CN3CCC(O)CC3)cccc2n1	1.54
CCOc1ccc(-c2ccc3[nH]c(NC(=O)c4cn5c(C)cccc5n4)nc3c2)cc1Cl	0.93
COc1cc(F)cn2cc(C(=O)Nc3nc4cc(-c5cccc(C(F)(F)F)c5)ccc4[nH]3)nc12	1.73
O=C(Nc1nc2cc(-c3cccc(C(F)(F)F)c3)ccc2[nH]1)c1cn2cc(CN3CCCC3)ccc2n1	4.74

Now examine the next entry.
Look at this molecule and give its reported EC50. CN(C)C(=O)c1cccc2nc(C(=O)Nc3nc4cc(-c5cc(F)cc(Cl)c5)ccc4[nH]3)cn12
1.65

====

- Target under test: BACE-1 enzyme (Homo sapiens)
- Construct: purchased R & D Systems 931AS
- Method summary: BACE Fluorescence Resonance Energy Transfer (FRET) Assay
- Format: biochemical
- Condition parameters: pH 4-4.5, 30 min pre-incubation, about 1.5 hours reaction
Please assign class 0 whenever IC50 is at or above 0.4 µM, and class 1 whenever it is below.

CCCc1cccc2nc(C(=O)Nc3nc4cc(-c5cccc(C(F)(F)F)c5)ccc4[nH]3)cn12	class 1

Please indicate whether the reported IC50 of COc1cc(F)cn2cc(C(=O)Nc3nc4cc(-c5cccc(OC(F)(F)F)c5)ccc4[nH]3)nc12 is strictly below 0.4 µM.
class 1

And what about the compound Cc1cccc2nc(C(=O)Nc3nc4cc(-c5ccc(C(F)(F)F)c(Cl)c5)ccc4[nH]3)cn12 ?
class 0

Next: Cc1cccn2cc(C(=O)Nc3nc4cc(-c5ccc(C(C)(C)C)cc5)ccc4[nH]3)nc12
class 1

What about O=C(Nc1nc2cc(OCc3ccc(F)cc3F)ccc2[nH]1)c1cn2cc(Cl)ccc2n1 ?
class 1

Same question, O=C(Nc1nc2cc(-c3cccc(C(F)(F)F)c3)ccc2[nH]1)c1cn2cc(F)ccc2n1 this time
class 0

Now try O=C(Nc1nc2cc(-c3cccc(Cl)c3)ccc2[nH]1)c1cn2cc(OCCOC3CCCCO3)ccc2n1 (stereo not drawn) .
class 1

Item: O=C(Nc1nc2cc(-c3cccc(C(F)(F)F)c3)ccc2[nH]1)c1cn2cc(CNC3CCCC3)ccc2n1
class 0

Also Cc1cccn2cc(C(=O)Nc3nc4cc(-c5cccc(C(F)(F)F)c5)ccc4n3C)nc12 , if possible.
class 0

Now the same for CC(C)(C)NCc1ccc2nc(C(=O)Nc3nc4cc(-c5cccc(C(F)(F)F)c5)ccc4[nH]3)cn2c1
class 0

Same again, this time with CCOc1cccc2nc(C(=O)Nc3nc4cc(-c5cccc(C(F)(F)F)c5)ccc4[nH]3)cn12
class 0

Could you do the same for Cc1cccn2cc(C(=O)Nc3nc4cc(OCc5ccc(OC(F)(F)F)cc5)ccc4[nH]3)nc12 , please?
class 0

Next up: CN(C)C(=O)c1cccn2cc(C(=O)Nc3nc4cc(-c5cccc(C(F)(F)F)c5)ccc4[nH]3)nc12
class 1

Try CNCc1cccc2nc(C(=O)Nc3nc4cc(-c5cccc(C(F)(F)F)c5)ccc4[nH]3)cn12 next.
class 0

Another compound: Cc1cccc2nc(C(=O)Nc3nc4cc(-c5ccc(OC(C)C)cc5)ccc4[nH]3)cn12
class 0

Next compound: CC(C)CNCc1cccc2nc(C(=O)Nc3nc4cc(-c5cccc(C(F)(F)F)c5)ccc4[nH]3)cn12
class 1

====

- Target under test: BACE-1 enzyme (Homo sapiens)
- Construct: purchased R & D Systems 931AS
- Method summary: BACE Fluorescence Resonance Energy Transfer (FRET) Assay
- Assay type: biochemical
- Condition parameters: pH 4-4.5, 30 min pre-incubation, about 1.5 hours reaction
- Description: BACE Fluorescence Resonance Energy Transfer (FRET) Assay In the following assay, the proteolytic activity of BACE is measured by observing cleavage of a fluorescent group from a peptide substrate containing a rhodamine fluorescent donor and a quenching acceptor. The inhibitory activity of compounds of Formula (I) may be compared to a statine derived control inhibitor STA200 (MP Biomedical Cat. #STA-200). […]
Listing: IC50 of selected compounds
Your answer should be a plain number; it is taken to be in µM.

Observed IC50 on BACE-1 enzyme (Homo sapiens) for O=C(Nc1nc2cc(OCc3ccc(C(F)(F)F)cc3)ccc2[nH]1)c1cn2cc(-c3ccccc3)ccc2n1 , please.
5.28

Please do the same for CCN(CCO)Cc1ccn2cc(C(=O)Nc3nc4cc(-c5cccc(C(F)(F)F)c5)ccc4[nH]3)nc2c1 as well.
0.24

Could you do the same for CNC(=O)c1cccn2cc(C(=O)Nc3nc4cc(-c5cccc(C(F)(F)F)c5)ccc4[nH]3)nc12 , please?
0.16

Same again, this time with COCCNc1cccc2nc(C(=O)Nc3nc4cc(-c5cccc(C(F)(F)F)c5)ccc4[nH]3)cn12
0.54

====

- Target under test: BACE-1 enzyme (Homo sapiens, UniProt P56817)
- Construct: purchased R & D Systems 931AS
- Sequence (P56817 46-457 limits assumed): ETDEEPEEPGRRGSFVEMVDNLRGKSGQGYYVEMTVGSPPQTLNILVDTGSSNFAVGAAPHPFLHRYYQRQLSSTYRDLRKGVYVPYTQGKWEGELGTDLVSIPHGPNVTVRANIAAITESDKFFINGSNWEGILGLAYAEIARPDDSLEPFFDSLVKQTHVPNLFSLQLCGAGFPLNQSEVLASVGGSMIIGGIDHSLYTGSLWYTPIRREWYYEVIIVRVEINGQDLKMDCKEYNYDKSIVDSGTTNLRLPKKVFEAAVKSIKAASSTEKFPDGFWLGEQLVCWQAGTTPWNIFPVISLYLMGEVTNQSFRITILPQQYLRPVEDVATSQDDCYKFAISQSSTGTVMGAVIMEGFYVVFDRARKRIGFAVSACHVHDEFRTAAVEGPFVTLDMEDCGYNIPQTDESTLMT
- Method summary: BACE Fluorescence Resonance Energy Transfer (FRET) Assay
- Assay type: biochemical
- Condition parameters: pH 4-4.5, 30 min pre-incubation, about 1.5 hours reaction
Recorded metric: IC50

O=C(Nc1nc2cc(-c3cc(F)cc(Cl)c3)ccc2[nH]1)c1cn2cc(F)cc(N3CCNCC3)c2n1	0.35 µM
O=C(Nc1nc2cc(-c3cc(F)cc(Cl)c3)ccc2[nH]1)c1cn2cc(F)cc(OCCN3CCCCC3)c2n1	0.41 µM
Cc1cccc2nc(C(=O)Nc3nc4cc(-c5cc(Cl)cc(C(F)(F)F)c5)ccc4[nH]3)cn12	0.28 µM

Continue with the next compound.
Please provide the recorded IC50 for COCCCNCc1cccc2nc(C(=O)Nc3nc4cc(-c5cccc(C(F)(F)F)c5)ccc4[nH]3)cn12 , tested on BACE-1 enzyme (Homo sapiens, UniProt P56817).
0.93 µM
